# EXPERIMENTAL_SYSTEM: T1, human TIGIT over-expressed on cells (human, UniProt Q495A1 22-244)
# T1 construct: also called CHO-K1/human TIGIT cells; CHO cells expressing human TIGIT
# T1 sequence: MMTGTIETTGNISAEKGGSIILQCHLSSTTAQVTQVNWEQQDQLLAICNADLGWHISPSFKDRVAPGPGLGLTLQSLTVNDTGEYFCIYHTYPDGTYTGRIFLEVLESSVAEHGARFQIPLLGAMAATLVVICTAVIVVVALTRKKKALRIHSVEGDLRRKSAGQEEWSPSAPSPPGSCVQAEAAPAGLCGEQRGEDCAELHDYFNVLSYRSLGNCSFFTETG
# PROTOCOL_TEXT: competition FACS, CHO cells expressing human TIGIT; competitor PVR recombinant protein
Please respond with reported IC50 for every item in the list.
Numbers only, in nM.

BINDER	QUANTITY	VALUE_MEASURED
128E3G7F5 (antibody, V domains shown, Mouse monoclonal antibody; also called mouse anti-human TIGIT monoclonal antibody 128E3G7F5) VH: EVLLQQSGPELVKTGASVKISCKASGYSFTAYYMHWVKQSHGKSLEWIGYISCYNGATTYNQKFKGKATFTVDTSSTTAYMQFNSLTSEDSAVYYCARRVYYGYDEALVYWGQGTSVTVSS VL: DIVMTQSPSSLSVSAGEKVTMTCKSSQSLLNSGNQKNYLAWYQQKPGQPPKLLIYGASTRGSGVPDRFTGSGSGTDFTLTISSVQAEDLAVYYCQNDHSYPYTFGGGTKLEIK	IC50	1.1
139E2C2D2 (antibody, V domains shown, Mouse monoclonal antibody; also called mouse anti-human TIGIT monoclonal antibody 139E2C2D2) VH: EVQLVESGGDLVKPGGSLKLSCAASGFTFSSYGMSWVRQTPDKRLEWVAIISSGGNYTYYPDSVKGRFTISRDNAKNTLYLQMSSLKSEDTAMYYCARQIHYFFAMDYWGQGTSVTVSS VL: DIQMTQSPASLSVSVGETVTITCRASENIYSNLAWYQQKQGKSPQLLVYAATNLADGAPSRFSGSRSGTQYSLKINSLQSEDFGSYYCQHFWGTAYTFGGGTKLEIK	IC50	0.7

Query: Give IC50 for 70A11A8E6 (antibody, V domains shown, Mouse monoclonal antibody; also called mouse anti-human TIGIT monoclonal antibody 70A11A8E6) VH: DVQLQESGPGLVKPSQSLSLTCTVTGYSITSDYAWNWIRQFPGNKLEWMGYIIYSGSTSYNPSLKSRISITRDTSKNQFFLQLNSVTTEDTATYYCARGWFRRPDYWGQGTTLTVSS VL: DIVMTQSHEFMSTSLGDRVSITCKASQDVSTAVAWHQQKPGQSPKQLIYSASYRYTGVPDRFTGSGSGTDFTFTISNMQAEDLAVYYCQQHYSVPLTFGAGTKLELK
Reply: 0.7
